biological target: T1, E^578C EGFR (full-length human, FLAG tag) on BaF/3 cells (human, UniProt P00533 25-1210); test: Scatchard, 125I-EGF on BaF/3 cells, Kd2 (low-affinity site)
T1 construct: whole, on cells
Outcome Measure: pKd
Convention used: pKd is expressed as -log10 of the molar concentration.

Look up and state reported pKd for Murine EGF, purified from mouse submaxillary glands (ligand, UniProt P01132 977-1029, looked up, iodinated with 125I (Iodogen) as tracer in the Scatchard assays, mature; also called ^125I-EGF) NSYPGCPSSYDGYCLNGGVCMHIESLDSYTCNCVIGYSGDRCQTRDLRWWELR
8.77
